- Study target: BRD4 BD1 (Homo sapiens)
- Construct: made in house
- Test description: AlphaScreen binding assay, BRD4 Bromodomain 1
Reported endpoint: IC50

// solved cases for IC50 follow
>>> observed_measurement("CNC(=O)N1C[C@H](C)N(C(C)=O)c2ccc(-c3ccc(S(C)(=O)=O)cc3)cc21 [Example I-253]")
"> 10 µM"
>>> observed_measurement("CC(=O)N1c2ccccc2N(C(=O)c2ccnc3ccccc23)C[C@@H]1C [Example I-754]")
"> 10 µM"
>>> observed_measurement("CC(=O)N1c2ccc(-c3cnn(C4COC4)c3)cc2N(C(=O)OCC(Cl)Cl)C[C@@H]1C [Example I-62]")
"0.1 to 1 µM"
>>> observed_measurement("CC(C)OC(=O)N1C[C@H](C)N(C(=O)C2CC2)c2ccc(-c3cnn(CC(N)=O)c3)cc21 [Example I-310]")
"0.1 to 1 µM"
>>> observed_measurement("CC(=O)N1c2ccc(-c3ccc(N4CCCS4(=O)=O)cc3)cc2N(C(=O)OC(C)C)C[C@@H]1C [Example I-469]")
"0.1 to 1 µM"
>>> observed_measurement("COC(=O)N1c2ccc(-c3cnn(CC(C)(C)O)c3)cc2N(C(=O)OC(C)C)C[C@@H]1C [Example I-329]")
"0.1 to 1 µM"
>>> observed_measurement("C[C@H]1CN(C(=O)c2ccco2)c2cc(-c3ccc(C(=O)N(C)C)cc3)ccc2N1C(=O)C(F)(F)F [Example I-362]")
"> 10 µM"
>>> observed_measurement("CC(C)OC(=O)N1C[C@H](C)N(C(=O)C2CC2)c2ccc(-c3cnn(CCS(C)(=O)=O)c3)cc21 [Example I-309]")
"0.1 to 1 µM"

I'd like to know its IC50. The compound in question is CC(=O)N1c2ccc(-c3ccc(N4CCCS4(=O)=O)cc3)cc2N(C(=O)Oc2ccc(F)cc2)C[C@@H]1C [Example I-1021]
0.1 to 1 µM

I'd like to know its IC50. The compound in question is CCOC(=O)N1C[C@H](C)N(C(C)=O)c2ccc(-c3ccc(F)c(S(C)(=O)=O)c3)cc21 [Example I-1100]
1 to 10 µM

I'd like to know its IC50. The compound in question is C[C@H]1CN(C(=O)C2CC2)c2cc(-c3ccc(N4CCCS4(=O)=O)cc3)ccc2N1C(=O)C1CC1 [Example I-440]
0.1 to 1 µM

====

- Study target: BRD4 BD2 (Homo sapiens)
- Test description: AlphaScreen binding assay, BRD4 Bromodomain 2
Reported endpoint: IC50

>>> observed_measurement("CC(=O)N1c2ccc(-c3cnn(Cc4ccccn4)c3)cc2N(C(=O)C2CC2)C[C@@H]1C")
"< 50 nM"

I'd like to know its IC50. The compound in question is CCC(=O)N1c2ccc(-c3ccc(S(C)(=O)=O)cc3)cc2N(C(=O)c2ccco2)C[C@@H]1C
< 50 nM

I'd like to know its IC50. The compound in question is CC(=O)N1c2ccccc2N(C(=O)CN2CCCCCC2=O)C[C@@H]1C
> 500 nM

I'd like to know its IC50. The compound in question is CC(=O)N1c2ccccc2N(Cc2ccc(O)c(C)c2)C[C@@H]1C
> 500 nM

I'd like to know its IC50. The compound in question is CC(=O)N1c2cc(Br)c(-c3ccc(S(C)(=O)=O)cc3)cc2N(C(=O)OC(C)C)C[C@@H]1C
> 500 nM

I'd like to know its IC50. The compound in question is CCOC(=O)N1C[C@H](C)N(C(C)=O)c2ccc(-c3cn[nH]c3)cc21
50 to 500 nM

I'd like to know its IC50. The compound in question is CC(=O)N1c2ccccc2N(C(=O)c2cccc3[nH]ccc23)CC1C (stereo not shown)
> 500 nM

I'd like to know its IC50. The compound in question is CC(=O)N1c2ccc(-c3cnn(C4CC4)c3)cc2N(c2noc3ccccc23)C[C@@H]1C
< 50 nM

I'd like to know its IC50. The compound in question is CC(=O)N1c2ccc(-c3cnn(CCC(F)(F)F)c3)cc2N(C(=O)C2CC2)C[C@@H]1C
< 50 nM

====

- Study target: BRD4 BD1 (Homo sapiens, UniProt O60885)
- Test description: AlphaScreen binding assay, BRD4 Bromodomain 1
The following molecules are shown together with reported IC50 values.

>>> observed_measurement("CC(=O)N1c2ccc(-c3ccc(NC(N)=O)cc3)cc2N(C(=O)c2ccco2)C[C@@H]1C")
"1000 to 10000 nM"
>>> observed_measurement("CCCS(=O)(=O)c1ccc(-c2ccc3c(c2)N(C(=O)C2CCC2)C[C@H](C)N3C(C)=O)cc1")
"1000 to 10000 nM"

I'd like to know its IC50. The molecule in question is CC(=O)N1c2ccc(-c3cccc(N4CCCS4(=O)=O)c3)cc2N(C(=O)OC(C)C)C[C@@H]1C
100 to 1000 nM

I'd like to know its IC50. The molecule in question is CC(=O)N1c2ccc(-c3ccc(S(=O)(=O)N4CCN(C)CC4)cc3)cc2N(C(=O)c2ccco2)C[C@@H]1C
1000 to 10000 nM

I'd like to know its IC50. The molecule in question is CC(=O)N1c2cc(C#N)c(-c3ccc(S(C)(=O)=O)cc3)cc2N(C(=O)OC(C)C)C[C@@H]1C
1000 to 10000 nM

I'd like to know its IC50. The molecule in question is COC(=O)N1c2ccc(-c3cnn(CCN4CCCS4(=O)=O)c3)cc2N(C(=O)OC(C)C)C[C@@H]1C
100 to 1000 nM

I'd like to know its IC50. The molecule in question is C[C@H]1CN(C(=O)c2ccco2)c2cc(-c3ccc(S(C)(=O)=O)cc3)ccc2N1C(=O)C1CCC1
1000 to 10000 nM

====

- Study target: BRD4 BD2 (Homo sapiens, UniProt O60885)
- Construct: made in house
- Test description: AlphaScreen binding assay, BRD4 Bromodomain 2
Reported endpoint: IC50

// solved cases for IC50 follow
>>> observed_measurement("CC(=O)N1c2ccc(-c3cnn(C4CC4)c3)cc2N(C(=O)Oc2cncc(F)c2)C[C@@H]1C [Example I-1189]")
"50 to 500 nM"
>>> observed_measurement("C[C@H]1CN(C(=O)c2ccco2)c2cc(-c3ccc(S(C)(=O)=O)cc3)ccc2N1C(=O)C1CCCC1 [Example I-373]")
"> 500 nM"
>>> observed_measurement("CC(=O)N1c2ccccc2N(Cc2ccc(C)cc2)C[C@@H]1C [Example I-895]")
"> 500 nM"

I'd like to know its IC50. The compound in question is CC(=O)N1c2ccc(-c3ccc4c(c3)N(C)S(=O)(=O)N4)cc2N(C(=O)C2CCC2)C[C@@H]1C [Example I-1176]
< 50 nM

I'd like to know its IC50. The compound in question is COC(=O)N1c2ccc(-c3cnn(CC(N)=O)c3)cc2N(C(=O)OC(C)C)C[C@@H]1C [Example I-319]
50 to 500 nM

I'd like to know its IC50. The compound in question is CC(=O)N1c2ccccc2N(S(=O)(=O)c2cccc(C)c2)C[C@@H]1C [Example I-948]
> 500 nM

I'd like to know its IC50. The compound in question is CC(=O)N1c2ccccc2N(S(=O)(=O)c2ccc(C)cc2)C[C@@H]1C [Example I-940]
> 500 nM

I'd like to know its IC50. The compound in question is CC(=O)N1c2ccc(-c3ccncc3)cc2N(C(=O)c2ccco2)C[C@@H]1C [Example I-820]
< 50 nM

I'd like to know its IC50. The compound in question is CC(=O)N1c2ccc(-c3cccc(N4CCCS4(=O)=O)c3)cc2N(C(=O)OC(C)C)C[C@@H]1C [Example I-1153]
50 to 500 nM

I'd like to know its IC50. The compound in question is CC(=O)N1c2ccc(-c3cnn(CCS(C)(=O)=O)c3)cc2N(C(=O)Oc2ccccn2)C[C@@H]1C [Example I-1318]
50 to 500 nM

I'd like to know its IC50. The compound in question is CC(=O)N1c2ccc(-c3ccc(S(=O)(=O)CCO)cc3)cc2N(C(=O)OC(C)C)C[C@@H]1C [Example I-478]
50 to 500 nM

====

- Study target: BRD4 BD1 (Homo sapiens)
- Test description: AlphaScreen binding assay, BRD4 Bromodomain 1
The following compounds are shown together with reported IC50 values.

// solved cases for IC50 follow
>>> observed_measurement("CC(=O)N1c2ccc(-c3ccc(C(=O)N4CC[C@H](O)C4)cc3)cc2N(C(=O)OC(C)C)C[C@@H]1C [Example I-580]")
"0.1 to 1 µM"
>>> observed_measurement("CC(=O)N1c2ccc(-c3cnccn3)cc2N(C(=O)c2ccco2)C[C@@H]1C [Example I-384]")
"1 to 10 µM"
>>> observed_measurement("CC(=O)N1c2ccc(-c3cccc(S(C)(=O)=O)c3)cc2N(C(=O)C2CC2)C[C@@H]1C [Example I-1050]")
"1 to 10 µM"
>>> observed_measurement("CC(=O)N1c2ccccc2N(C(=O)Cc2cccc(C(F)(F)F)c2)C[C@@H]1C [Example I-710]")
"> 10 µM"
>>> observed_measurement("CC(=O)N1c2ccccc2N(Cc2ccc(O)c(C)c2)C[C@@H]1C [Example I-904]")
"> 10 µM"

I'd like to know its IC50. The compound in question is CC(=O)N1c2ccc(-c3ccc(S(C)(=O)=O)cc3)cc2N(C(=O)C2CC2)C[C@@H]1C [Example I-781]
1 to 10 µM

I'd like to know its IC50. The compound in question is CC(=O)N1c2ccc(-c3cnn(CC(=O)O)c3)cc2N(C(=O)OC(C)C)C[C@@H]1C [Example I-130]
0.1 to 1 µM

I'd like to know its IC50. The compound in question is CC(=O)N1c2ccc(-c3cnn(C4COC4)c3)cc2N(C(=O)OC(C)C)C[C@@H]1C [Example I-144]
< 0.1 µM

These entries and their values trace back to patent US10703764B2.
